targetOrSystem: K-Ras G13C (Homo sapiens (Human), UniProt P01116+P62937, G13C)
Sequence (P01116-2 other isoform, or with tags, fused parts or gaps G13C): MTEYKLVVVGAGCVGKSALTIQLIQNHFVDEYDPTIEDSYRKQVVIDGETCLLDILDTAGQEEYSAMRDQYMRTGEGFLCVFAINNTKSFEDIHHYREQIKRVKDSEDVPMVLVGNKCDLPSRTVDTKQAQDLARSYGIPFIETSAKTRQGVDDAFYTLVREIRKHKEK
Sequence (P62937 whole entry): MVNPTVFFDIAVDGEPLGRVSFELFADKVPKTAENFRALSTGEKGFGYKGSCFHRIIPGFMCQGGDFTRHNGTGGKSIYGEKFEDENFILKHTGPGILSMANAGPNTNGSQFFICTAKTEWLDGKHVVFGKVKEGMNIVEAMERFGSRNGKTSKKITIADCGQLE
assay: Ras-Raf (BRAF RBD) disruption / FRET / MOA assay, KRAS G13C
Assay type: biochemical
experimentalConditions: KRAS G13C; Ras-Raf disruption/FRET/MOA assay; read-out: IC50* KRAS G13C FRET data
pIC50: −log10 of the molar value.
Each entry below lists one item and its recorded pIC50 value.
observationType: pIC50

INSERT INTO measurements (compound, value) VALUES
  ('CCn1c(-c2cccnc2[C@H](C)OC)c2c3cc(ccc31)-c1csc(n1)C[C@H](NC(=O)[C@H](C(C)C)N(C)C(=O)N1CCC13CN(C(=O)/C=C/CN1CCOCC1)C3)C(=O)N1CCC[C@H](N1)C(=O)OCC(C)(C)C2 (atropisomer, axis not shown) [Example A611]', '6.00 to 7.00'),
  ('C=CC(=O)N1CC[C@H](C(=O)N(C)[C@H](C(=O)N[C@H]2Cc3cccc(c3)-c3ccc4c(c3)c(c(-c3cccnc3[C@@H]3CCCO3)n4CC)CC(C)(C)COC(=O)[C@@H]3CCCN(N3)C2=O)C(C)C)C1 (atropisomer, axis not shown) [Example A512]', '5.00 to 6.00');

* * *

Entries and their pIC50 values follow.
targetOrSystem: KRAS Q61H (Homo sapiens (Human), UniProt P01116+P62937, Q61H)
Sequence (P01116-2 other isoform, or with tags, fused parts or gaps Q61H): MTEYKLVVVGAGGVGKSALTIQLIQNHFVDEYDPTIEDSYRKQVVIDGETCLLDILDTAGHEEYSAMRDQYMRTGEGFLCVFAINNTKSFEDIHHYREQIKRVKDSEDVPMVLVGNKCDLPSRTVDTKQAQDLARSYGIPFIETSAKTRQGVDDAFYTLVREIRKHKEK
Sequence (P62937 whole entry): as the sequence (P62937 whole entry) above
assay: Ras-Raf (BRAF RBD) disruption / FRET / MOA assay, KRAS Q61H
Type: biochemical
experimentalConditions: Ras-Raf disruption/FRET/MOA assay; class symbols; read-out: KRAS Q61H FRET data IC50
pIC50: −log10 of the molar value.
observationType: pIC50

INSERT INTO assay_data (compound, value) VALUES
  ('C=CC(=O)N1CCC2(CCN(C(=O)N(C)[C@H](C(=O)N[C@H]3Cc4cccc(c4)-c4ccc5c(c4)c(c(-c4cccnc4[C@H](C)OC)n5CC)CC(C)(C)COC(=O)[C@@H]4CCCN(N4)C3=O)C(C)C)CC2)C1 (atropisomer, axis not shown)', '6.00 to 7.00'),
  ('CO[C@@H](C)c1ncccc1-c1c2c3cc(ccc3n1CC(F)(F)F)-c1csc(n1)C[C@H](NC(=O)[C@H](C(C)C)N(C)C(=O)N1C[C@@H]3OCCN(C(=O)/C=C/C(F)F)[C@@H]3C1)C(=O)N1CCC[C@H](N1)C(=O)OCC(C)(C)C2 (atropisomer, axis not shown)', '6.00 to 7.00'),
  ('C=CC(=O)N1CC[C@H](C(=O)N(C)[C@H](C(=O)N[C@H]2Cc3cc(O)cc(c3)-c3ccc4nc(-c5cccnc5[C@H](C)OC)n(c4c3)CC(C)(C)COC(=O)[C@@H]3CCCN(N3)C2=O)C(C)C)C1', '5.00 to 6.00'),
  ('C=CC(=O)N1CCOC2(CCN(C(=O)N(C)[C@H](C(=O)N[C@H]3C[C@H]4CN(CCO4)c4ccc5c(c4)c(c(-c4cccnc4[C@H](C)OC)n5CC)CC(C)(C)COC(=O)[C@@H]4CCCN(N4)C3=O)C(C)C)CC2)C1', '6.00 to 7.00'),
  ('C=CC(=O)N1CCN(C(=O)N(C)[C@H](C(=O)N[C@H]2Cc3cc(O)cc(c3)-c3ccc4c(c3)c(c(-c3cccnc3[C@H](C)OC)n4CC)CC(C)(C)COC(=O)[C@@H]3CCCN(N3)C2=O)C(C)C)CC1 [Example A338]', '7.00 to 8.00'),
  ('C=CC(=O)N1CC[C@H](C(=O)N(C)[C@H](C(=O)N[C@H]2Cc3cc(O)cc(c3)-c3ccc4c(c3)c(c(-c3ccc5c(c3)OCCN5C)n4CC)CC(C)(C)COC(=O)[C@@H]3CCCN(N3)C2=O)C(C)C)C1', '5.00 to 6.00'),
  ('C=CC(=O)N1CCN(C(=O)N(C)[C@H](C(=O)N[C@H]2Cc3cc(O)cc(c3)-c3ccc4c(c3)c(c(-c3cccnc3[C@H](C)OC)n4CC)CC(C)(C)COC(=O)[C@@H]3CCCN(N3)C2=O)C(C)C)CC1 (atropisomer, axis not shown) [Example A262]', '7.00 to 8.00'),
  ('C=CC(=O)N1CC[C@H](C(=O)N(C)[C@H](C(=O)N[C@H]2Cc3cc(O)cc(c3)-c3ccc4c(c3)c(c(-c3cccnc3)n4[C@H](C)C#N)CC(C)(C)COC(=O)[C@@H]3CCCN(N3)C2=O)C(C)C)C1', '6.00 to 7.00');

* * *

targetOrSystem: KRAS G13D (Homo sapiens (Human), UniProt P01116+P62937, G13D)
Sequence (P01116-2 other isoform, or with tags, fused parts or gaps G13D, one chain of several): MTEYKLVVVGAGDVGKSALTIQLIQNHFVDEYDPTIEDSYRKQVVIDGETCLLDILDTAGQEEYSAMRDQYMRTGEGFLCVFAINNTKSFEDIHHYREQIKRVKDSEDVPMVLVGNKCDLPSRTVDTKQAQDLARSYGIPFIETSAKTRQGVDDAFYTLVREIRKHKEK
assay: Ras-Raf (BRAF RBD) disruption / FRET / MOA assay, KRAS G13D
Format: biochemical
experimentalConditions: read-out: IC50* KRAS G13D FRET data
pIC50: −log10 of the molar value.
observationType: pIC50

INSERT INTO results (compound, targetorsystem, observationtype, value) VALUES
  ('CCn1c(-c2cccnc2[C@H](C)OC)c2c3cc(ccc31)-c1cccc(c1)C[C@H](NC(=O)[C@H](C(C)C)N(C)C(=O)[C@H]1CCN(C(=O)C#C[C@@H]3COCCN3C)C1)C(=O)N1CCC[C@H](N1)C(=O)OCC(C)(C)C2 [Example A528]', 'KRAS G13D (Homo sapiens (Human), UniProt P01116+P62937, G13D)', 'pIC50', '< 5.00'),
  ('C=CC(=O)N1CCC(F)(C(=O)N(C)[C@H](C(=O)N[C@H]2Cc3cccc(c3)-c3ccc4c(c3)c(c(-c3cccnc3[C@H](C)OC)n4CC)CC(C)(C)COC(=O)[C@@H]3CCCN(N3)C2=O)C(C)C)CC1 (atropisomer, axis not shown) [Example A518]', 'KRAS G13D (Homo sapiens (Human), UniProt P01116+P62937, G13D)', 'pIC50', '6.00 to 7.00'),
  ('C=CC(=O)N1CC[C@H](C(=O)N(C)[C@H](C(=O)N[C@H]2Cc3cc(O)cc(c3)-c3ccc4c(c3)c(c(-c3cn(C)cn3)n4CC)CC(C)(C)COC(=O)[C@@H]3CCCN(N3)C2=O)C(C)C)C1 [Example A113]', 'KRAS G13D (Homo sapiens (Human), UniProt P01116+P62937, G13D)', 'pIC50', '< 5.00'),
  ('C=CC(=O)N1CC[C@H](C(=O)N(C)[C@H](C(=O)N[C@H]2Cc3ncc(n3C)-c3ccc4c(c3)c(c(-c3cccnc3[C@H](C)OC)n4CC)CC(C)(C)COC(=O)[C@@H]3CCCN(N3)C2=O)C(C)C)C1 (atropisomer, axis not shown) [Example A276]', 'KRAS G13D (Homo sapiens (Human), UniProt P01116+P62937, G13D)', 'pIC50', '< 5.00'),
  ('C=CC(=O)N1C[C@@H](C)N(C(=O)N(C)[C@H](C(=O)N[C@H]2Cc3nc(cs3)-c3ccc4c(c3)c(c(-c3cccnc3[C@H](C)OC)n4CC)CC(C)(C)COC(=O)[C@@H]3CCCN(N3)C2=O)C(C)C)[C@H](C)C1 (atropisomer, axis not shown) [Example A388]', 'KRAS G13D (Homo sapiens (Human), UniProt P01116+P62937, G13D)', 'pIC50', '7.00 to 8.00'),
  ('CC#CC(=O)N1CC[C@@]2(CCN([C@H](C(=O)N[C@H]3Cc4cccc(c4)-c4ccc5c(c4)c(c(-c4cccnc4[C@H](C)OC)n5CC)CC(C)(C)COC(=O)[C@@H]4CCCN(N4)C3=O)C(C)C)C2=O)C1 (atropisomer, axis not shown) [Example A426]', 'KRAS G13D (Homo sapiens (Human), UniProt P01116+P62937, G13D)', 'pIC50', '< 5.00'),
  ('CO[C@@H](C)c1ncccc1-c1c2c3cc(ccc3n1CC(F)(F)F)-c1nc(co1)C[C@H](NC(=O)[C@H](C(C)C)N(C)C(=O)C1(F)CCN(C(=O)C#CC(C)(C)N(C)C)CC1)C(=O)N1CCC[C@H](N1)C(=O)OCC(C)(C)C2 (atropisomer, axis not shown) [Example A578]', 'KRAS G13D (Homo sapiens (Human), UniProt P01116+P62937, G13D)', 'pIC50', '6.00 to 7.00'),
  ('C=CC(=O)N1CC[C@H](C(=O)N(C)[C@H](C(=O)N[C@H]2Cc3cc(O)cc(c3)-c3ccc4c(c3)c(c(-c3cncc5c3[C@@H](OC)CC5)n4CC)CC(C)(C)COC(=O)[C@@H]3CCCN(N3)C2=O)C(C)C)C1 [Example A275]', 'KRAS G13D (Homo sapiens (Human), UniProt P01116+P62937, G13D)', 'pIC50', '6.00 to 7.00');

* * *

targetOrSystem: K-Ras G13C (Homo sapiens (Human), UniProt P01116+P62937, G13C)
assay: Ras-Raf (BRAF RBD) disruption / FRET / MOA assay, KRAS G13C
Format: biochemical
experimentalConditions: KRAS G13C; Ras-Raf disruption/FRET/MOA assay; read-out: IC50* KRAS G13C FRET data
pIC50: −log10 of the molar value.
Item-by-item account of pIC50
observationType: pIC50

INSERT INTO assay_data (compound, targetorsystem, value) VALUES
  ('CCn1c(-c2cccnc2[C@H](C)OC)c2c3cc(ccc31)-c1csc(n1)C[C@H](NC(=O)[C@H](C(C)C)N(C)C(=O)[C@H]1CCC(C(=O)/C=C/CN(C)C)C1)C(=O)N1CCC[C@H](N1)C(=O)OCC(C)(C)C2 (some centres unmarked)', 'K-Ras G13C (Homo sapiens (Human), UniProt P01116+P62937, G13C)', '5.00 to 6.00'),
  ('C=CC(=O)N(C)C[C@@H]1CCN(C(=O)N(C)[C@H](C(=O)N[C@H]2Cc3nc(cs3)-c3ccc4c(c3)c(c(-c3cccnc3[C@H](C)OC)n4CC)CC(C)(C)COC(=O)[C@@H]3CCCN(N3)C2=O)C(C)C)C1 (atropisomer, axis not shown)', 'K-Ras G13C (Homo sapiens (Human), UniProt P01116+P62937, G13C)', '6.00 to 7.00'),
  ('CO[C@@H](C)c1ncc(N2CCN(C)CC2)cc1-c1c2c3cc(ccc3n1CC(F)(F)F)-c1cccc(c1)C[C@H](NC(=O)[C@H](C(C)C)N(C)C(=O)C1(F)CCN(C(=O)C#CC(C)(C)N(C)C)CC1)C(=O)N1CCC[C@H](N1)C(=O)OCC(C)(C)C2 (atropisomer, axis not shown)', 'K-Ras G13C (Homo sapiens (Human), UniProt P01116+P62937, G13C)', '> 8.00'),
  ('C=CC(=O)N1CC[C@H](C(=O)N(C)[C@H](C(=O)N[C@H]2Cc3cc(O)cc(c3)-c3ccc4c(c3)c(c(-c3cc(CN(C)C)cnc3[C@H](C)OC)n4CC)CC(C)(C)COC(=O)[C@@H]3CCCN(N3)C2=O)C(C)C)C1 (atropisomer, axis not shown) [Example A537]', 'K-Ras G13C (Homo sapiens (Human), UniProt P01116+P62937, G13C)', '7.00 to 8.00'),
  ('C=CC(=O)N1CC[C@H](C(=O)N(C)[C@H](C(=O)N[C@H]2Cc3cccc(c3)-c3ccc4c(c3)c(c(-c3cnn(C)c3CN(C)C)n4CC)CC(C)(C)COC(=O)[C@@H]3CCCN(N3)C2=O)C(C)C)C1 (relative stereo)', 'K-Ras G13C (Homo sapiens (Human), UniProt P01116+P62937, G13C)', '< 5.00'),
  ('C=CC(=O)N1CC[C@H](C(=O)N(C)[C@H](C(=O)N[C@H]2Cc3cc(O)cc(c3)-c3ccc4c(c3)c(c(-c3cccnc3[C@@H](OC)C3CC3)n4CC)CC(C)(C)COC(=O)[C@@H]3CCCN(N3)C2=O)C(C)C)C1 (atropisomer, axis not shown) [Example A206]', 'K-Ras G13C (Homo sapiens (Human), UniProt P01116+P62937, G13C)', '5.00 to 6.00'),
  ('CCn1c(-c2cncnc2)c2c3cc(ncc31)-c1cc(O)cc(c1)C[C@H](NC(=O)[C@H](C(C)C)N(C)C(=O)[C@H]1CCN(C(=O)C#CCN(C)C)C1)C(=O)N1CCC[C@H](N1)C(=O)OCC(C)(C)C2', 'K-Ras G13C (Homo sapiens (Human), UniProt P01116+P62937, G13C)', '7.00 to 8.00'),
  ('C=CC(=O)N1CCO[C@H]2CN(C(=O)N(C)[C@H](C(=O)N[C@H]3Cc4nc(cs4)-c4ccc5c(c4)c(c(-c4cccnc4[C@H](C)OC)n5CC)CC(C)(C)COC(=O)[C@@H]4CCCN(N4)C3=O)C(C)C)C[C@@H]21 (atropisomer, axis not shown)', 'K-Ras G13C (Homo sapiens (Human), UniProt P01116+P62937, G13C)', '6.00 to 7.00');
